tested on: CAKI-1 renal; assay: NCI tumour cell line growth inhibition, 48 h
Each item that follows carries a reported TGI.
readout kind: TGI

* COc1ccc(SC(C)(SC)c2ccccn2)c(OC)n1 (stereo not given) | > 100 µM
* [N-]=[N+]=NC1C(Br)C(=O)NC(=O)N1[C@H]1C[C@H](O)[C@@H](CO)O1 (stereo not given in full) | > 100 µM
* C[C@]12CC(c3ccccc3O1)C(C(=O)NC13CC4CC(CC(C4)C1)C3)C(=O)N2 (stereo not given in full) | > 100 µM
* Nc1nc(SCc2ccccc2)c2ncn(Cc3ccccc3)c2n1 | > 86.5 µM
* COc1cccc(-c2nc3c(C(=O)NCCN(C)C)cccc3[nH]2)c1 | > 96 µM
* CCOC(=O)c1c(NC(=O)Nc2ccccc2)c(C(N)=O)c2n1CCCCC2 | > 100 µM
* [N-]=[N+]=Nc1ccc2c(c1)Sc1ccccc1N2CCCCCl | > 100 µM
* CC(=O)Nc1ccc(C2[C@H]3C(=O)N(c4ccc(Cc5ccc(N6C(=O)[C@@H]7ON(c8ccccc8)C(c8ccc(NC(C)=O)cc8)[C@@H]7C6=O)cc5)cc4)C(=O)[C@H]3ON2c2ccccc2)cc1 (stereo not given in full) | > 100 µM
* O=C(CCCn1ccnc1[N+](=O)[O-])NCCn1ccnc1 | > 100 µM
* N#C/C=C1\C=CC(O)C(O)C1OC1OC(CO)C(O)C(O)C1O (stereo not given) | > 100 µM

---

system: HCC-2998 colon; assay: NCI tumour cell line growth inhibition, 48 h
Each item that follows carries a reported GI50.
readout kind: GI50

* Oc1cc2cccc[n+]2c2cccc(Cl)c12 | 52.4 µM
* CC(NNC(=S)N1CCCCCC1)c1ccc2ccccc2n1 (stereo not drawn) | 3.35 µM
* Cc1cc2c(F)c(Oc3ncnn4cc(OC[C@@H](C)OC(=O)[C@H](C)N)c(C)c34)ccc2[nH]1 | 13.5 µM

---

Each item that follows carries a reported TGI.
tested on: NCI-H226 lung; assay: NCI tumour cell line growth inhibition, 48 h
readout kind: TGI

* CC1(O)/C(=N/O)CC2CC1C2(C)C (stereo not drawn) | > 100 µM
* c1ccc(CCN(Cc2nc3ccccc3[nH]2)Cc2nc3ccccc3[nH]2)cc1 | > 68.5 µM
* COc1ccc2[nH]c(Cl)c(/C=C3/C(=O)N(C)c4ccccc43)c2c1 | > 100 µM
* O=C(/C=C/c1ccc(O)cc1)NCCc1ccc(O)cc1 | > 12.5 µM
* O=S(=O)(O)c1c(N=Nc2c(O)ccc3ccccc23)ccc2ccccc12 | > 100 µM
* O=[N+]([O-])C(=C(N1CCOCC1)N1CCOCC1)/C(Cl)=C(\Cl)[N+](=O)[O-] | > 100 µM
* c1ccc(N=C2c3ccccc3C3=NCCCN32)cc1 | > 100 µM
* CCOC(=O)c1ccc(C(=O)/C(C#N)=C2\CCCN2)[nH]1 | > 100 µM
* O=C1CC2(CCC(O)(c3ccc(Cl)cc3)C(C(=O)c3ccc(Cl)cc3)C2)C(=O)c2ccccc2N1 (stereo not drawn) | > 52.5 µM
* Cc1ccc2c(=O)c3cccc(CC(=O)O)c3oc2c1C | > 100 µM
* CNC(=O)c1n[nH][nH]c1=O | > 100 µM
* Cc1cc(C)nc(Nc2nc3ccc([N+](=O)[O-])cc3[nH]2)n1 | > 100 µM
* COc1ccc(-c2nc(-c3cn(C)c4ncccc34)cs2)cc1 | > 100 µM
* COC1OC(CO)C(O)C(OC(=O)c2cc(O)c(O)c(O)c2)C1OC(=O)c1cc(O)c(O)c(O)c1 (stereo not drawn) | > 100 µM
* COC12C=CC(CC1)C1C(=O)c3c(C)c(C)n(C)c3C(=O)C12 (stereo not drawn) | > 100 µM
* O=C(CCCn1ccnc1[N+](=O)[O-])NCCn1ccnc1 | > 100 µM
* CC1[C@@H](OCc2ccccc2)COC(=O)N1Cc1ccccc1 (stereo partly drawn) | > 100 µM
* N.N.NC(CS)C(=O)[O-].NC(CS)C(=O)[O-].[Pt+4] (stereo not drawn) | > 50 µM
* Nc1c(-c2nc3ccccc3[nH]2)sc(=S)n1-c1ccccc1 | > 100 µM
* C=CCOCn1ccc(=O)[nH]c1=O | > 100 µM
* Cc1ccccc1N(C)S(=O)(=O)c1ccccc1[N+](=O)[O-] | > 100 µM
* COC(=O)[C@H](Cc1ccccc1)NC(=O)N1CCN(C(=O)N[C@@H](Cc2ccccc2)C(=O)OC)CCN(C(=O)N[C@@H](Cc2ccccc2)C(=O)OC)CC1 | > 100 µM
* CC(C)(C)N1NC1C1NN1C(C)(C)C (stereo not drawn) | > 100 µM
